In this section we review reported selectivity ratio values for a set of molecules.
assay-comment: Selectivity index, ratio of IC50 for human MRC5 cells to IC50 for human A549 cells
Format: toxicity
protocol-conditions: MRC5 cells versus A549 cells, read-out: Ratio IC50
API note: the answer field is a bare number with no unit suffix.

Recorded selectivity ratio, per entry:
CN(C)CCCn1cc(C=C2c3cccnc3-c3ncccc32)c(-c2ccc(Br)cc2)n1 = 7.01
CN(C)CCCn1cc(C=C2c3cccnc3-c3ncccc32)c(-c2ccc(Cl)cc2)n1 = 2.36

Now take the following molecule into account.
Ask: For CN(C)CCCn1cc(C=C2c3cccnc3-c3ncccc32)c(-c2ccc(F)cc2)n1 , what is its reported selectivity ratio?
Result: 1.72

----------
assay-comment: Binding affinity to Tel-26nt G-rich DNA (unknown origin) at => 3 uM incubated for 24 hrs by EMSA
Activity calls are given as the source filed them. No cut-off for these calls is given here.
// one of active, inactive, no free text

Answered examples (3):
CN(C)CCCn1cc(C=C2c3cccnc3-c3ncccc32)c(-c2ccc(Br)cc2)n1 = active
CN(C)CCCn1cc(C=C2c3cccnc3-c3ncccc32)c(-c2ccc(Cl)cc2)n1 = active
CN(C)CCCn1cc(C=C2c3cccnc3-c3ncccc32)c(-c2ccc(F)cc2)n1 = active

We next turn to a different molecule, shown below.
Ask: Dear colleague, could you share the recorded outcome for O=C1C(=C2c3cccnc3-c3ncccc32)SC(=S)N1Cc1nnc(-c2ccc(Br)cc2)o1 when you have a moment?
Result: inactive

----------
# key: entry, value: selectivity ratio
assay-comment: Selectivity index, ratio of IC50 for human MRC5 cells to IC50 for human AGS cells
Assay type: toxicity
protocol-conditions: MRC5 cells versus AGS cells, read-out: Ratio IC50
Enter a number only.

Please review the entries below; each comes with its answer.
CN(C)CCCn1cc(C=C2c3cccnc3-c3ncccc32)c(-c2ccc(F)cc2)n1 = 2.02
CN(C)CCCn1cc(C=C2c3cccnc3-c3ncccc32)c(-c2ccc(Br)cc2)n1 = 4.25

# next molecule below
Ask: Can you share its selectivity ratio? I mean this molecule: CN(C)CCCn1cc(C=C2c3cccnc3-c3ncccc32)c(-c2ccc(Cl)cc2)n1
Result: 1.78

----------
Listing of entries alongside the reported Tm.
assay-comment: Binding affinity to Tel-26nt G-rich DNA (unknown origin) assessed as change in melting temperature at 8 uM by UV-vis spectrophotometry (reference value: 38.33 +/- 0.07 degreeC)
Entry rule: numbers only, all in °C.

These recorded examples may help you get a feel for the data.
CN(C)CCCn1cc(C=C2c3cccnc3-c3ncccc32)c(-c2ccc(Cl)cc2)n1 = 43.4
CN(C)CCCn1cc(C=C2c3cccnc3-c3ncccc32)c(-c2ccc(Br)cc2)n1 = 44.9
CN(C)CCCn1cc(C=C2c3cccnc3-c3ncccc32)c(-c2ccc(F)cc2)n1 = 62.7

Okay, now this compound:
Ask: Consider the compound shown here: O=C1C(=C2c3cccnc3-c3ncccc32)SC(=S)N1Cc1nnc(-c2ccc(Br)cc2)o1 What is its recorded Tm?
Result: 47

----------
assay-comment: Binding affinity to Tel-26nt G-rich DNA (unknown origin) assessed as change in melting temperature at 2 uM by UV-vis spectrophotometry (reference value: 38.33 +/- 0.07 degreeC)
compounds and their reported Tm
Quote the value and follow it with the unit of measurement.

In the examples that follow, each entry is paired with its recorded Tm.
O=C1C(=C2c3cccnc3-c3ncccc32)SC(=S)N1Cc1nnc(-c2ccc(Br)cc2)o1 = 43.1 °C
CN(C)CCCn1cc(C=C2c3cccnc3-c3ncccc32)c(-c2ccc(F)cc2)n1 = 44 °C
CN(C)CCCn1cc(C=C2c3cccnc3-c3ncccc32)c(-c2ccc(Cl)cc2)n1 = 45.6 °C

Consider the record given below.
Ask: Value lookup for Tm; key = CN(C)CCCn1cc(C=C2c3cccnc3-c3ncccc32)c(-c2ccc(Br)cc2)n1
Result: 48.6 °C
